Reference source for all entries: patent US20110319431A1

# ASSAY_SYSTEM: Recombinant human LTC4 synthase (Homo sapiens)
# Construct: made in house; host or cells: Pichia pastoris
# Sequence (Q16873 1-150): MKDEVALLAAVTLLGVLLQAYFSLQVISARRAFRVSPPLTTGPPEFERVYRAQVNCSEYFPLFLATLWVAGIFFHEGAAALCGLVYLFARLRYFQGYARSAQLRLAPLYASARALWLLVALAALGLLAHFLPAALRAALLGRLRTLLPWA
# METHOD: In vitro LTC4 synthase assay (LTA4 to LTC4, HTRF detection)
# Assay type: biochemical
# MEASUREMENT_CONTEXT: title compounds of the Examples
RESULT_TYPE: IC50 (nM)
Supply the numeric figure in nM, leaving out any unit text.

Sample answers from the record:
- COMPOUND: "O=C(c1ccc(Sc2ccccc2Cl)c(C(=O)O)c1)c1ccc(N(CC2CC2)c2ccc(Cl)cc2)cn1"
  UNIT_LABEL: "nM"
  IC50: 22
- COMPOUND: "COc1cccc(Sc2ccc(C(=O)c3ccc(N(CC4CC4)c4ccc(Cl)cc4)cn3)cc2C(=O)O)c1"
  UNIT_LABEL: "nM"
  IC50: 81
- COMPOUND: "CN(c1ccc(Cl)cc1)c1ccc(C(=O)c2ccc([S+]([O-])Cc3ccccc3)c(C(=O)O)c2)cc1 (stereo not drawn)"
  UNIT_LABEL: "nM"
  IC50: 109
- COMPOUND: "CCCCCC[S+]([O-])c1ccc(C(=O)c2ccc(N(C)c3ccc(Cl)cc3)cn2)cc1C(=O)O (stereo not drawn)"
  UNIT_LABEL: "nM"
  IC50: 41
- COMPOUND: "CCCCCCS(=O)(=O)c1ccc(C(=O)c2ccc(N(C)c3ccc(Cl)cc3)cc2)cc1C(=O)O"
  UNIT_LABEL: "nM"
  IC50: 398

Pending compound:
// "CN(c1ccc(Cl)cc1)c1ccc(C(=O)c2cc(Sc3ccccc3)cc(C(=O)O)c2)cc1" : IC50 value = 175

----------
# ASSAY_SYSTEM: Recombinant human LTC4 synthase (Homo sapiens, UniProt Q16873)
# Construct: made in house; host or cells: Pichia pastoris
# METHOD: In vitro LTC4 synthase assay (LTA4 to LTC4, HTRF detection)
# Assay type: biochemical
# MEASUREMENT_CONTEXT: title compounds of the Examples
# Method: In the assay, LTC4 synthase catalyses the reaction where the substrate LTA4 is converted to LTC4. Recombinant human LTC4 synthase is expressed in Piccia pastoralis and the purified enzyme is dissolved in 25 mM tris-buffer pH 7.8 supplemented with 0.1 mM glutathione (GSH) and stored at −80° C. The assay is performed in phosphate buffered saline (PBS) pH 7.4 and 5 mM GSH in 384-well plates. […] 1. […] 10 μL of the incubation mixture is analysed using homogenous time resolved fluorescent (HTRF) detection.
pIC50: −log10 of the molar value.
Lab note: compare pIC50 against 7. Equal or greater, write t. Smaller, write f.

- MOLECULE: "CCCCCCSc1ccc(C(=O)c2ccc(N(C)c3ccc(Cl)cc3)cc2)cc1C(=O)O"
  CLASSIFICATION: "f"

Q) Is pIC50 for CCCCCC[S+]([O-])c1ccc(C(=O)c2ccc(N(C)c3ccc(Cl)cc3)cc2)cc1C(=O)O (stereo not shown) at or above 7?
A) t
